Cited source: paper PMC9127186

Quick list: TransportTC/TransportMC ratio (net transport ratio) per entry.
# Target System: human OCT3 (Homo sapiens, UniProt O75751)
# Sequence (O75751 1-556): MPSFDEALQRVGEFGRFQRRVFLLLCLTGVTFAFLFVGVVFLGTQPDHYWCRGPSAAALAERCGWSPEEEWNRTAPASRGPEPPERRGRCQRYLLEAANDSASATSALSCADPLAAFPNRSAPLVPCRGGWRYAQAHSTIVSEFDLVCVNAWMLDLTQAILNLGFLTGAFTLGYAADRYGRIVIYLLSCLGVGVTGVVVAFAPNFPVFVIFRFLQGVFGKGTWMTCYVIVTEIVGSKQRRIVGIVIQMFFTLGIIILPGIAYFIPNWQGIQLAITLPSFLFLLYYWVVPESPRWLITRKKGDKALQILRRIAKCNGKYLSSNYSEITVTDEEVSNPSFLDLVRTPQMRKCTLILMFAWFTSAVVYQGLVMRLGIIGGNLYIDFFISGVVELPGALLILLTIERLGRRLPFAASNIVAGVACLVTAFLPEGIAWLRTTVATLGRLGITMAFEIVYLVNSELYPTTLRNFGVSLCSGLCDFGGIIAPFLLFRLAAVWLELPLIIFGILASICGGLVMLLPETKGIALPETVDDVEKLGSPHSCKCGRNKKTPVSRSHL
# Assay Text: Cellular transport assay, HEK-293 cells expressing human OCT3
# Study Conditions: Danshen phenolic acid at 100 μM final concentration, 10 min; human OCT3-transfected vs mock cells
Measurement Type: TransportTC/TransportMC ratio (net transport ratio)

> print(dat)
                              smiles.string          val
1  O=C(O)Cc1c(/C=C/C(=O)O[C@H](Cc2ccc(O)c(O)c2)C(=O)O)ccc(O)c1O  0.94 ± 0.32
2                      O=C(O)c1ccc(O)c(O)c1  0.94 ± 0.24
3  O=C(/C=C/c1ccc(O)c2c1[C@H](C(=O)O)[C@@H](c1ccc(O)c(O)c1)O2)O[C@H](Cc1ccc(O)c(O)c1)C(=O)O  0.84 ± 0.15
4  O=C(/C=C/c1ccc(O)c(O)c1)O[C@H](Cc1ccc(O)c(O)c1)C(=O)O  0.75 ± 0.23

---

# Target System: rat Oat2 (Rattus norvegicus)
# Sequence (Q5RLM2 1-535): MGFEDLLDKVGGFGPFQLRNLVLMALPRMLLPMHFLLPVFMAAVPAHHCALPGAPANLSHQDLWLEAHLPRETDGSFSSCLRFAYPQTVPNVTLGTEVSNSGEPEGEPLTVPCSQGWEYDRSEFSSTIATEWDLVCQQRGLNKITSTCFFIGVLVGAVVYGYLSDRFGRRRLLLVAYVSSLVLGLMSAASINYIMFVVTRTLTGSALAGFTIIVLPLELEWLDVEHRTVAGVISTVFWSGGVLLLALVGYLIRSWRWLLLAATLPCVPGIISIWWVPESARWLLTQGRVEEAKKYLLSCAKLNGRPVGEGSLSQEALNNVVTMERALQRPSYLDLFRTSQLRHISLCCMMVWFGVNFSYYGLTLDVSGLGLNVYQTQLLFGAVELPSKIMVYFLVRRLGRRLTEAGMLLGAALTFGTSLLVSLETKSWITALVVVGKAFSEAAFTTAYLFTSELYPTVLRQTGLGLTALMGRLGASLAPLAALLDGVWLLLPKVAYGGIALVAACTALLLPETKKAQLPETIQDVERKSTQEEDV
# Assay Text: Cellular transport assay, HEK-293 cells expressing rat Oat2
Measurement Type: substrate of rat Oat2

> print(dat)
                              smiles.string         val
1  O=C(O)Cc1c(/C=C/C(=O)O[C@H](Cc2ccc(O)c(O)c2)C(=O)O)ccc(O)c1O  substrates
2  O=C(/C=C/c1ccc(O)c(O)c1)O[C@H](Cc1ccc(O)c(O)c1)C(=O)O  substrates
3                      O=C(O)c1ccc(O)c(O)c1  substrates
